Kindly state conductivity σ for each of the entries shown.
assay.overview: conductivity of doped smectic A composition 18 in 15 μm cell
Format: physicochemical
condition.notes: composition 18, dopant 8.78 · 10^−3 mol/kg, prepared in fluorobenzene, 100 Hz, RT

Request the reported conductivity σ associated with N#Cc1c(F)cc([O-])cc1F.[K+].c1ccc2c(c1)OCCOCCOc1ccccc1OCCOCCO2 [IVn]
8.1 · 10^−9 Ohm^−1cm^−1

// next record CCCCCCCCCCCCc1ccc(S(=O)(=O)[O-])cc1.[K+].c1ccc2c(c1)OCCOCCOc1ccccc1OCCOCCO2 [IVg12]
2.7 · 10^−10 Ohm^−1cm^−1

// next record CCCCCCCCc1ccc([O-])cc1.[K+].c1ccc2c(c1)OCCOCCOc1ccccc1OCCOCCO2 [IVh8]
1.4 · 10^−10 Ohm^−1cm^−1

// next record CCCCCCCCCCCCCCCC[N+]1=C2CCCCCN2CCC1 [II.16c]
4.6 · 10^−10 Ohm^−1cm^−1

// next record [K+].[O-]c1ccc(F)c(F)c1.c1ccc2c(c1)OCCOCCOc1ccccc1OCCOCCO2 [IVk]
4.1 · 10^−9 Ohm^−1cm^−1

###

Kindly state solubility in C6H5F for each of the entries shown.
assay.overview: solubility of ionic compounds in fluorobenzene

Request the reported solubility in C6H5F associated with CCCCCCCCCCCCCCCC[N+](C)(C)C.[Br-] [I.16b, hexadecyltrimethylammonium bromide, reference compound]
0.00274 mol/dcm^3

// next record CCCCCCCCCCCCCCCC[N+]1=C2CCCCCN2CCC1 [II.16b]
>0.02 >0.02 >0.02 >0.02 mol/dcm^3

// next record CCCCCCCCCCCCCCCC[N+]1=C2CCCCCN2CCC1 [II.16d]
>0.02 >0.02 >0.02 >0.02 mol/dcm^3

// next record CCCCCCCCCCCCCCCC[N+]1=C2CCCCCN2CCC1 [II.16c]
>0.02 >0.02 >0.02 >0.02 mol/dcm^3

###

assay.overview: resistivity of fluorobenzene solutions of ionic compounds (bridge method)
Format: physicochemical
condition.notes: solution in C6H5F, 25° C., 50 Hz
observed.property: resistivity 50 Hz

Request the reported resistivity 50 Hz associated with [K+].[O-]c1ccc(F)c(F)c1.c1ccc2c(c1)OCCOCCOc1ccccc1OCCOCCO2
1.1 · 10^6 Ohm · cm

// next record CCCCCCCCCCCCCCCC[N+]1=C2CCCCCN2CCC1 [II.16c]
1.0 · 10^6 Ohm · cm

// next record CCCCCCCCCCCCc1ccc(S(=O)(=O)[O-])cc1.[K+].c1ccc2c(c1)OCCOCCOc1ccccc1OCCOCCO2
6.0 · 10^5 Ohm · cm

// next record N#Cc1c(F)cc([O-])cc1F.[K+].c1ccc2c(c1)OCCOCCOc1ccccc1OCCOCCO2
4.2 · 10^5 Ohm · cm

// next record CCCCCCCCCCCCCCCC[N+](C)(C)C.[Br-] [I.16b, hexadecyltrimethylammonium bromide, reference compound]
5.0 · 10^7 Ohm · cm

###

Kindly state solubility in C6H5F for each of the entries shown.
assay.overview: solubility of ionic compounds in fluorobenzene
condition.notes: fluorobenzene, 25° C.

Request the reported solubility in C6H5F associated with CCCCCCCCc1ccc([O-])cc1.[K+].c1ccc2c(c1)OCCOCCOc1ccccc1OCCOCCO2
0.0107 mol/dcm^3

// next record CCCCCCCCCCCCc1ccc(S(=O)(=O)[O-])cc1.[K+].c1ccc2c(c1)OCCOCCOc1ccccc1OCCOCCO2
>0.02 mol/dcm^3

// next record [K+].[O-]c1ccc(F)c(F)c1.c1ccc2c(c1)OCCOCCOc1ccccc1OCCOCCO2
> 0.02 mol/dcm^3

// next record N#Cc1c(F)cc([O-])cc1F.[K+].c1ccc2c(c1)OCCOCCOc1ccccc1OCCOCCO2
>0.02 mol/dcm^3

// next record C1COCCOCCOCCOCCOCCO1.[K+].[O-]c1ccc(F)c(F)c1
> 0.02 mol/dcm^3

// next record CC[N+]12CCCCCC1=NCCC2.[Br-] (stereo not shown)
0.0077 mol/dcm^3

// next record C1COCCOCCOCCOCCOCCO1.CCCCCCCCCCCCc1ccc(S(=O)(=O)[O-])cc1.[K+]
>0.02 mol/dcm^3

###

assay.overview: resistivity of fluorobenzene solutions of ionic compounds (bridge method)
Type: physicochemical
condition.notes: solution in C6H5F, 25° C., 10 kHz
Kindly state resistivity 10 kHz for each of the entries shown.

Request the reported resistivity 10 kHz associated with N#Cc1c(F)cc([O-])cc1F.[K+].c1ccc2c(c1)OCCOCCOc1ccccc1OCCOCCO2
4.6 · 10^5 Ohm · cm

// next record CCCCCCCCCCCCCCCC[N+](C)(C)C.[Br-] [I.16b, hexadecyltrimethylammonium bromide, reference compound]
5.2 · 10^7 Ohm · cm

// next record [K+].[O-]c1ccc(F)c(F)c1.c1ccc2c(c1)OCCOCCOc1ccccc1OCCOCCO2
0.95 · 10^6 Ohm · cm

// next record CCCCCCCCCCCCc1ccc(S(=O)(=O)[O-])cc1.[K+].c1ccc2c(c1)OCCOCCOc1ccccc1OCCOCCO2
4.5 · 10^5 Ohm · cm

// next record CCCCCCCCCCCCCCCC[N+]1=C2CCCCCN2CCC1 [II.16c]
0.84 · 10^6 Ohm · cm
